- Test system: Vero
- method_description: Cytotoxicity against African green monkey Vero cells assessed as cell viability after 72 hrs by propidium iodide/fluorescein diacetate staining-based flow cytometric analysis
- condition_parameters: Chlorocebus sabaeus
pIC50: −log10 of the molar value.
# maps each entry to its pIC50
quantity_kind: pIC50

CCCCNc1c(NCCN(C)C)c(=O)c1=O ... 3.58
CN(C)CCCNc1c(NCCCNc2c(NCCCN(C)C)c(=O)c2=O)c(=O)c1=O ... 4.94
NCc1ccc(Nc2c(O)c(=O)c2=O)cc1 ... 4.44
CCCCCCCCCCCCCCCCNc1c(NCCN(C)C)c(=O)c1=O ... 4.05
CCOC(=O)c1ccc(Nc2c(O)c(=O)c2=O)cc1 ... 4.67
